B1: Twister Ribozyme (parent)
chain: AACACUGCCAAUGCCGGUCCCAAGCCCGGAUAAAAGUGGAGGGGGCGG

variants of: B1; test: self-cleavage, relative activity (ratio to wild type); higher = more cleavage; co-transcriptional
experimental-endpoint: self-cleavage

AACACUGCCAAUGCCGGUCCGAAUCCCGGAUAAAAGUGGAGGGGGCGG
0.0976
CACACUGCCAAUGCCGGUCCCAAGCCCGGAUCAAAGUGGAGGGGGCGG
0.188
AACACUACCAAUGGCGGUCCCAAGCCCGGAUAAAAGUGGAGGGGGCGG
0.0811
AACACUGCCAAUGCUGAUCCCAAGCCCGGAUAAAAGUGGAGGGGGCGG
0.204
AACACUGCCAAUGCCGGUCCCAAGCCCGGAUAAAAGUGGAGGUGGUGG
0.426
AACACUGCCAAUGCGGGUCCCAAGCCCGGGUAAAAGUGGAGGGGGCGG
0.123
AACACUGCCAAUGCCGGUCCCAAGCCCGGAUGAAGGUGGAGGGGGCGG
0.718
AACACUGCCAAUGCCGGUCCCAAGCCCGGAUAAAAGUGUAGGAGGCGG
0.138
AACACUGCCAAUGCCGGUUCCAAGCCCGGAUACAAGUGGAGGGGGCGG
0.795
ACCACUGCCAAUGCCGGUCCCAAGCCCCGAUAAAAGUGGAGGGGGCGG
0.0792
AACACGGCCAAUGCCGGUCCCAAGCCCGGAUUAAAGUGGAGGGGGCGG
0.405
AACACUGCCAAUGUCGGUCCCAAGCCCGGAUAAAAGAGGAGGGGGCGG
0.83
AACACUGCCAAUGCGGGUCCCAAGCCCGGAUAGAAGUGGAGGGGGCGG
0.0911
AACACUGCCACUGCCGGUCCCAAGCCCGGAUAAAAGUGGAGUGGGCGG
0.136
AACACUGCCAAUGCCGGUCCCAAGCCCGGGUAAACGUGGAGGGGGCGG
0.792
AACAGUGCCAAUGCCGGUCCCAUGCCCGGAUAAAAGUGGAGGGGGCGG
0.136
GACACUGCCAAUGCCGGUCCCAAGCCCGGAUAACAGUGGAGGGGGCGG
0.186
AACACUACCAAUGCCGGUCCCACGCCCGGAUAAAAGUGGAGGGGGCGG
0.0662
AACACUGCCAAUGCCGGUCCCAAGCCCGGAUAAAAAUGAAGGGGGCGG
0.195
AACACUGCCAAUGCCGGUCCCAAGCCCGGAUAGAGGUGGAGGGGGCGG
0.865
AAUACUGCCAAUGCCGGUCCCAAGCCCGCAUAAAAGUGGAGGGGGCGG
0.277
ACAACUGCCAAUGCCGGUCCCAAGCCCGGAUAAAAGUGGAGGGGGCGG
0.101
AACACUGCCAAUGCCGGUCCCAAGCCCGGAGAAAAGUGGAUGGGGCGG
0.763
AACACUGCCAAUGCCGGUCCCAAGCCCGGUUAACAGUGGAGGGGGCGG
0.17
AACACUACCAAUGCCGGUCCCAAGCCCGGAUAAAAGUGGAUGGGGCGG
0.11
AACACUGCCGAUGCCGGUCCCAACCCCGGAUAAAAGUGGAGGGGGCGG
0.131
AACACUGCCAAUGCCGGUCCCAUGCCCGGACAAAAGUGGAGGGGGCGG
0.682
